Recorded values, source patent US20110245242A1.

- procedureText: log P by HPLC on reversed-phase columns (C 18), method [a], acidic range pH 2.3
- Type: physicochemical
- reportedConditions: pH 2.3
Below, each entry is listed alongside its reported log p.
measuredParameter: log p

# molecule, observedMeasurement
data = [
    ("C[C@@H]1COC(=O)N1c1cccc(Nc2ncc(Cl)c(NC3CC3)n2)c1 [Example 103]", "1.8[a]"),
    ("CC(C)C1COC(=O)N1c1cccc(Nc2ncc(Cl)c(NC3CC3)n2)c1 (centres unmarked) [Example 39]", "2.13[a]"),
    ("CN(c1nc(Nc2cccc(N3C(=O)CCC3CO)c2)ncc1Cl)C1CC1 (centres unmarked) [Example 82]", "1.54[a];"),
    ("CC(C)Nc1nc(Nc2ccc(N3CCCC3=O)cc2)ncc1Cl [Example 21]", "1.44[a];"),
    ("O=C1OCCN1c1ccc(Nc2ncc(Cl)c(NC3COC3)n2)cc1 [Example 17]", "0.26[a];"),
]

###

- procedureText: log P by LC-MS, method [b], acid range pH 2.7
- Type: physicochemical
- reportedConditions: pH 2.7
compounds and their reported chromatographic logP

# compound, chromatographic logP
data = [
    ("COCC(=O)N(c1cccc(N2CCCC2=O)c1)c1ncc(Cl)c(NC2CC2)n1", 1.87),
    ("CCOC(=O)N(c1cccc(N2CCCC2=O)c1)c1ncc(Cl)c(NC2CC2)n1", 2.04),
    ("CCOC(=O)[C@@H]1CCC(=O)N1c1cccc(Nc2ncc(Cl)c(NC3CC3)n2)c1", 1.69),
    ("O=C1OCCN1c1cccc(Nc2ncc(Cl)c(NC3CCC3)n2)c1", 1.64),
    ("O=CN(c1cccc(N2CCCC2=O)c1)c1ncc(Cl)c(NC2CC2)n1", 1.49),
    ("CC(Nc1nc(Nc2cccc(N3CCCC3=O)c2)ncc1C(F)(F)F)C(F)(F)F (stereo not drawn)", 3.08),
    ("CC(C)OC(=O)N(c1cccc(N2CCCC2=O)c1)c1ncc(Cl)c(NC2CC2)n1", 2.24),
    ("CCC1CC(C)C(=O)N1c1cccc(Nc2ncc(Cl)c(NC3CC3)n2)c1 (stereo not drawn)", 2.19),
    ("O=C1CCC(=O)N1c1cc(Nc2ncc(C(F)(F)F)c(NC3CC3)n2)ccc1Cl", 2.49),
]

###

- procedureText: log P by LC-MS, method [b], acid range pH 2.7
- Type: physicochemical
- reportedConditions: pH 2.7
measuredParameter: log p

# compound, measuredParameter, observedMeasurement
rows = [
    ("CC1CC(C)N(c2cccc(Nc3ncc(Cl)c(NCC(F)F)n3)c2)C1=O (stereo not drawn)", "log p", "2.11[b]"),
    ("CCC1CC1Nc1nc(Nc2cccc(N3CCCC3=O)c2)ncc1Cl (stereo not drawn)", "log p", "1.99[b]"),
    ("CC(C)Nc1nc(Nc2cccc(N3CCCCC3=O)c2)ncc1Cl", "log p", "1.46[b]"),
    ("C[C@H]1COC(=O)N1c1cccc(Nc2ncc(Br)c(NC3CC3)n2)c1", "log p", "1.65[b]"),
    ("CC(C)[C@H]1COC(=O)N1c1cccc(Nc2ncc(Cl)c(NCC(F)(F)F)n2)c1", "log p", "2.81[b]"),
    ("CC1CCC(=O)N1c1cccc(Nc2ncc(Cl)c(NCC(F)(F)F)n2)c1 (stereo not drawn)", "log p", "2.16[b]"),
    ("CC1CC1Nc1nc(Nc2ccc(N3CCOC3=O)cc2)ncc1Br (stereo not drawn)", "log p", "1.97[b]"),
    ("FC(F)(F)c1cnc(Nc2cccc(N3CCCC3=S)c2)nc1NC1CC1", "log p", "2.59[b]"),
    ("CC1CC(=O)N(c2cccc(Nc3ncc(C(F)(F)F)c(NC4CC4)n3)c2)C1=O (stereo not drawn)", "log p", "2.29[b]"),
]

###

- procedureText: log P by HPLC on reversed-phase columns (C 18), method [a], acidic range pH 2.3
- Assay type: physicochemical
- reportedConditions: pH 2.3, log P (pH 2.3)
# label = condition met if chromatographic logP < 3 else condition not met

# compound, categoryLabel
measured = [
    ("CCC1CC(C)C(=O)N1c1cccc(N)c1 (centres unmarked)", "condition met"),
    ("Clc1cnc(Nc2ccc(Br)cc2)nc1NC1CC1", "condition met"),
    ("Brc1ccc(Nc2ncc(Br)c(NCC3CC3)n2)cc1", "condition met"),
    ("Fc1cnc(Cl)nc1NC1CCC1", "condition met"),
    ("CCC(CC(C)C(=O)OC)[N+](=O)[O-] (centres unmarked) [Methyl 2-methyl-4-nitrohexanoate]", "condition met"),
    ("Brc1ccc(Nc2ncc(Br)c(NC3CC3)n2)cc1", "condition met"),
    ("CC(C)[C@@H]1COC(=O)N1c1cccc(N)c1", "condition met"),
    ("CCOC(=O)N(c1cccc(N2CCCC2=O)c1)c1ncc(Cl)c(NC2CC2)n1", "condition met"),
    ("CC1CC1Nc1nc(Cl)ncc1Cl (centres unmarked)", "condition met"),
    ("CC1(C)CC(=O)N(c2cccc(N)c2)C1=O", "condition met"),
    ("CC(Nc1nc(Cl)ncc1Cl)C(F)(F)F (centres unmarked)", "condition met"),
    ("CC1CC(Nc2nc(Cl)ncc2Br)C1 (centres unmarked)", "condition not met"),
    ("COCC(C)Nc1nc(Cl)ncc1C(F)(F)F (centres unmarked)", "condition met"),
    ("Brc1cnc(Nc2cccc(I)c2)nc1NC1CC1", "condition not met"),
    ("Clc1ncc(Cl)c(N2CCCCC2)n1", "condition not met"),
    ("Nc1cccc(N2CCOC2=O)c1", "condition met"),
    ("COc1cc(N)cc(N2CCCC2=O)c1", "condition met"),
    ("O=C1CCCN1c1cccc(Nc2ncc(C(F)F)c(F)n2)c1", "condition met"),
    ("CCC1CC(C)C(=O)N1 (centres unmarked)", "condition met"),
    ("CCC1CC1Nc1nc(Cl)ncc1Cl (centres unmarked)", "condition not met"),
    ("Clc1ncc(Cl)c(N2CCCC2)n1", "condition met"),
]

###

- procedureText: physchem
- Assay type: physicochemical
- reportedConditions: pH 7.8
- Experimental: The log P values were measured in accordance with EEC Directive 79/831 Annex V.A8 by HPLC (High Performance Liquid Chromatography) on reversed-phase columns (C 18) using the methods below: [c] The LC-MS determination in the neutral range was carried out at pH 7.8 using the mobile phases 0.001 molar aqueous ammonium bicarbonate solution and acetonitrile linear gradient from 10% acetonitrile to 95% acetonitrile.
measuredParameter: log p

# compound, measuredParameter, observedMeasurement
rows = [
    ("COc1ccc(Nc2ncc(C(F)(F)F)c(NC3CC3)n2)cc1N1CCCC1=O", "log p", "2.51[c];"),
    ("CC1CCN(c2cccc(Nc3ncc(Br)c(NC4CC4)n3)c2)C1=O (stereo not shown)", "log p", "2.83[c];"),
    ("CC1CC1Nc1nc(Nc2cccc(N3C(=O)OCC3C)c2)ncc1Cl (stereo not shown)", "log p", "2.79[c];"),
    ("CCC1CC(C)C(=O)N1c1cccc(Nc2ncc(Cl)c(NCC3CC3)n2)c1 (stereo not shown)", "log p", "3.54[c];"),
    ("CC1CC(=O)N(c2cccc(Nc3ncc(Cl)c(NC4CC4(C)C)n3)c2)C1=O (stereo not shown)", "log p", "2.92[c];"),
    ("COC1=CC(=O)N(c2cccc(Nc3ncc(Br)c(NC4CC4)n3)c2)C1", "log p", "2.65[c]"),
    ("CC1CC(Nc2nc(Nc3cccc(N4C(=O)CC(C)(C)C4=O)c3)ncc2Br)C1 (stereo not shown)", "log p", "3.66[c];"),
    ("C=CCNc1nc(Nc2cccc(N3CCCC3=O)c2)ncc1Cl", "log p", "2.37[c]"),
    ("CC1CCN(c2cccc(Nc3ncc(C(F)(F)F)c(NC4CC4)n3)c2)C1=O (stereo not shown)", "log p", "3.05[c];"),
    ("C=CCNc1nc(Nc2ccc(N3CCCC3=O)cc2)ncc1Cl", "log p", "2.29[c]"),
    ("CC1COC(=O)N1c1cccc(Nc2ncc(C(F)(F)F)c(NC3CC3)n2)c1 (stereo not shown)", "log p", "2.7[c];"),
    ("O=C1CCCN1c1ccc(Nc2ncc(Cl)c(NCC(F)(F)F)n2)cc1", "log p", "2.34[c]"),
    ("CC(C)C1COC(=O)N1c1cccc(Nc2ncc(C(F)(F)F)c(NC3CC3)n2)c1 (stereo not shown)", "log p", "3.34[c];"),
    ("CC1CCC(=O)N1c1cccc(Nc2ncc(C(F)(F)F)c(NC3CC3)n2)c1 (stereo not shown)", "log p", "2.73[c];"),
    ("O=C1CCC(=O)N1c1cccc(Nc2ncc(Cl)c(NC3CCC3)n2)c1", "log p", "2.32[c];"),
    ("O=C1CCC(CO)N1c1cccc(Nc2ncc(Br)c(NC3CC3)n2)c1 (stereo not shown)", "log p", "1.65[c]"),
    ("CC(C)Nc1nc(Nc2ccc(F)c(N3CCCC3=O)c2)ncc1Cl", "log p", "2.55[c];"),
    ("CC1CC(=O)N(c2cccc(Nc3ncc(Br)c(NC4CC4)n3)c2)C1 (stereo not shown)", "log p", "2.79[c];"),
    ("COc1cc(Nc2ncc(C(F)(F)F)c(NC3CC3)n2)cc(N2CCCC2=O)c1", "log p", "2.8[c];"),
    ("CCNc1nc(Nc2cccc(N3CCCC3=O)c2)ncc1Cl", "log p", "2.24[c];"),
    ("CCC1CC(C)C(=O)N1c1cccc(Nc2ncc(Br)c(NCC3CC3)n2)c1 (stereo not shown)", "log p", "3.69[c];"),
    ("CC1CC1Nc1nc(Nc2cccc(N3C(=O)CC(C)(C)C3=O)c2)ncc1Cl (stereo not shown)", "log p", "2.92[c];"),
    ("O=C1CCC(=O)N1c1cccc(Nc2ncc(Cl)c(NC3CC3)n2)c1", "log p", "1.98[c];"),
    ("O=C1OCCN1c1ccc(Nc2ncc(Cl)c(NC3COC3)n2)cc1", "log p", "0.76[c]"),
    ("COC(=O)N(c1cccc(N2CCCC2=O)c1)c1ncc(C(F)(F)F)c(NC2CC2)n1", "log p", "2.37[c];"),
    ("Cc1ccc(Nc2ncc(Cl)c(NC3CC3)n2)cc1N1CCCC1=O", "log p", "2.32[c];"),
    ("CC1CC(Nc2nc(Nc3cccc(N4CCCC4=O)c3)ncc2Cl)C1 (stereo not shown)", "log p", "3.26[c];"),
    ("CN(c1nc(Nc2cccc(N3C(=O)CCC3CO)c2)ncc1Cl)C1CC1 (stereo not shown)", "log p", "2.06[c]"),
    ("COc1ccc(Nc2ncc(Cl)c(NC3CC3)n2)cc1N1CCCC1=O", "log p", "2.18[c];"),
    ("CC(=O)N(c1cccc(N2CCCC2=O)c1)c1ncc(Cl)c(NCC2CC2)n1", "log p", "2.38[c];"),
    ("O=C1CCC(=O)N1Cc1cccc(Nc2ncc(Cl)c(NC3CC3)n2)c1", "log p", "2.32[c];"),
    ("O=C1C(O)CCN1c1cccc(Nc2ncc(Cl)c(NC3CC3)n2)c1 (stereo not shown)", "log p", "1.84[c]"),
    ("CC1CC(=O)N(c2cccc(Nc3ncc(C(F)(F)F)c(NC4CC4)n3)c2)C1=O (stereo not shown)", "log p", "2.53[c];"),
    ("O=C1CCCN1c1cccc(Nc2ncc(C(F)(F)F)c(NCC(F)F)n2)c1", "log p", "2.52[c];"),
    ("CSCC(C)(C)Nc1nc(Nc2cccc(N3CCCC3=O)c2)ncc1Cl", "log p", "3.26[c]"),
    ("C=CCNc1nc(Nc2ccc(N3CCOC3=O)cc2)ncc1Cl", "log p", "2.25[c]"),
    ("CC(C)C1COC(=O)N1c1cccc(Nc2ncc(Br)c(NC3CC3)n2)c1 (stereo not shown)", "log p", "3.18[c];"),
]
